The measurements presented in this section are drawn from patent US20220041559A1.

- study.system: human FynB (Homo sapiens, UniProt P06241)
- assay.method.text: Inhibition of FynB-induced Tau(Y18)-phosphorylation (cell-based assay, HEK293)
- reported.conditions: HEK293 over-expressing FynB and Tau 0N4R; incubation 6 or 24 hours; ELISA
measurement.kind: IC50 (nM)

[[record]]
cpd_smiles = "COCCN1CCC(c2ccc(C(=O)Nc3n[nH]c4nc(Nc5ccccc5F)ccc34)cc2)CC1"
measurement_kind = "IC50"
unit_of_measure = "nM"
reading = 1770


I: Cc1ccc(Nc2ccc3c(NC(=O)c4ccc(C5CCN(C)CC5)cc4)n[nH]c3n2)cc1
II: COc1ccc(Nc2ccc3c(NC(=O)c4ccc(C5CCN(C)CC5)cc4)n[nH]c3n2)cc1F
Please indicate which has the smaller reported IC50: I , or II . Answer format: the label of the selected item.
I
(I: 230 nM, II: 1850 nM)

P: Cc1ccc(Nc2ccc3c(NC(=O)c4ccc(C5CCN(C)CC5)cc4)n[nH]c3n2)c(F)c1
Q: CN1CCC(c2ccc(C(=O)Nc3n[nH]c4nc(Nc5ccc6c(c5)OCO6)ccc34)cc2)CC1
R: CN1CCN(c2ccc(C(=O)Nc3n[nH]c4nc(Nc5ccccc5F)ccc34)cc2)CC1
Order by IC50, ascending. Please list the labels according to the requested order.
Q, R, P

----------
- study.system: EGFR (Homo sapiens, UniProt P00533)
- Sequence (P00533 25-1210): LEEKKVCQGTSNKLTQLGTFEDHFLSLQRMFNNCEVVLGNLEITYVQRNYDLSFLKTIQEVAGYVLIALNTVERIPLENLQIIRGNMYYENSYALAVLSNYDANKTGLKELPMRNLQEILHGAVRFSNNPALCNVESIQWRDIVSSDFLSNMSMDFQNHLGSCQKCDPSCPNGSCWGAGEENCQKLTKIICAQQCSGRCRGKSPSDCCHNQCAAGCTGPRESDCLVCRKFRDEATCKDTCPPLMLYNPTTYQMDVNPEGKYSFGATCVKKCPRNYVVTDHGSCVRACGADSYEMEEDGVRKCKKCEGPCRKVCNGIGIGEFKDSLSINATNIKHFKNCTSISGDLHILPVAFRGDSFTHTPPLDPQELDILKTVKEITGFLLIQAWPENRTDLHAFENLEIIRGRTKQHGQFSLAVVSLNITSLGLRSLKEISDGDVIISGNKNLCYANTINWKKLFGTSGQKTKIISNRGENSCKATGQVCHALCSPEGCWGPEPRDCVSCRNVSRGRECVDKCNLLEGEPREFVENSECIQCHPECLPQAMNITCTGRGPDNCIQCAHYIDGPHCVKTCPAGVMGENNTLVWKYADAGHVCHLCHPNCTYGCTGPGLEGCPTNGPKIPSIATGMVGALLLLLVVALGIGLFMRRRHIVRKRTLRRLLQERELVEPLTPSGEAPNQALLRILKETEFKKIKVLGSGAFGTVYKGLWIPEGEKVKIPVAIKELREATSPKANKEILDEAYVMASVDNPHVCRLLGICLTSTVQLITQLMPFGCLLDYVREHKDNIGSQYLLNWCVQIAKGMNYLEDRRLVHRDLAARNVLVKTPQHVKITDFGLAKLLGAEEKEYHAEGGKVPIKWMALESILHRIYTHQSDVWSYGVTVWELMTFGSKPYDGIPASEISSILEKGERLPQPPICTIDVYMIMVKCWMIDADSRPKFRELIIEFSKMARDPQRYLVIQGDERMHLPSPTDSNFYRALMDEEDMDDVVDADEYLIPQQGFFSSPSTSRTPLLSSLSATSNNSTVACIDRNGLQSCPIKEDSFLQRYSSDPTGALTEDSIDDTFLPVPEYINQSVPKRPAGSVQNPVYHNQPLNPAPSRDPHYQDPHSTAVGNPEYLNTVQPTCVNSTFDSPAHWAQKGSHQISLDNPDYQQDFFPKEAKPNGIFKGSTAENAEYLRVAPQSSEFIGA
- assay.method.text: ADP-Glo in vitro kinase assay, EGFR kinase inhibition
- Format: biochemical
- Set-up: purchased SignalChem
- reported.conditions: ATP 10 μM, 30 minutes at room temperature
# IC50 per record follows

Measured IC50 of CN1CCC(c2ccc(C(=O)Nc3n[nH]c4nc(Nc5ccc(C#N)cc5)ccc34)cc2)CC1 : ≥ 1 µM

Entry under test: CN1CCC(c2ccc(C(=O)Nc3n[nH]c4cc(Nc5ccccc5F)ccc34)nc2)CC1 . Its IC50 was ≥ 1 µM

Lab note: CN1CCN(c2ccc(C(=O)Nc3n[nH]c4nc(Nc5ccccc5F)ccc34)cc2)CC1 gave IC50 of 0.015 µM

Sample Cc1ccc(Nc2ccc3c(NC(=O)c4ccc(C5CCN(C)CC5)cc4)n[nH]c3c2)c(F)c1 ; IC50 observed: ≥ 1 µM

----------
IC50, VEGFR2 (KDR) kinase (Homo sapiens): measured values
measurement.kind: IC50 (nM)

[[record]]
compound = "CN1CCC(c2ccc(C(=O)Nc3n[nH]c4nc(Nc5ccccc5F)ccc34)cc2)CC1 [Compound 5]"
study_system = "VEGFR2 (KDR) kinase (Homo sapiens)"
unit_of_measure = "nM"
reading = 82


A: CN1CCN(c2ccc(C(=O)Nc3n[nH]c4nc(Nc5ccccc5F)ccc34)cc2)CC1 [Compound 48]
B: CN1CCC(c2ccc(C(=O)Nc3n[nH]c4cc(Nc5ccccc5F)ccc34)cc2)CC1 [Compound 17]
C: CN1CCC(Oc2ccc(C(=O)Nc3n[nH]c4nc(Nc5ccccc5F)ccc34)cc2)CC1 [Compound 47]
Rank items: key IC50, increasing. Provide the labels, sequenced as the question asks.
A, C, B

----------
- assay.method.text: Pharmacokinetics in CD1 mice, iv and po
- Type: in vivo
- reported.conditions: mouse, plasma, po, 3 mg/kg
Property: Tmax; scope: individual compounds
Just the number please, in h, no unit attached.

[[record]]
compound = "CN1CCC(c2ccc(C(=O)Nc3n[nH]c4cc(Nc5ccccc5F)ccc34)cc2)CC1 [Compound 17]"
unit_of_measure = "h"
reading = 1


get_value(item= CN1CCC(c2ccc(C(=O)Nc3n[nH]c4nc(Nc5ccccc5F)ccc34)cc2)CC1 [Compound 5] , readout=Tmax) returns 2

----------
- assay.method.text: Pharmacokinetics in CD1 mice, iv and po
- Type: in vivo
- reported.conditions: mouse, plasma, iv, 3 mg/kg, read-out: CLp
measurement.kind: clearance (mL/min/kg)
Expressed in mL/min/kg, but write only the number.

[[record]]
cpd_smiles = "CN1CCC(c2ccc(C(=O)Nc3n[nH]c4cc(Nc5ccccc5F)ccc34)cc2)CC1"
measurement_kind = "clearance"
reading = 47.7


Turning now to a further record.
CN1CCC(c2ccc(C(=O)Nc3n[nH]c4nc(Nc5ccccc5F)ccc34)cc2)CC1 yielded clearance of 30.4

----------
- assay.method.text: Pharmacokinetics in CD1 mice, iv and po
- Type: in vivo
- reported.conditions: mouse, plasma, iv, 3 mg/kg, read-out: t½* (converted)
measurement.kind: half-life (h)
Your answer is read as h, so omit the unit and give the number.

[[record]]
compound = "CN1CCC(c2ccc(C(=O)Nc3n[nH]c4cc(Nc5ccccc5F)ccc34)cc2)CC1 [Compound 17]"
measurement_kind = "half-life"
reading = 5.5


API: the following record is the query input.
The reported half-life of the compound CN1CCC(c2ccc(C(=O)Nc3n[nH]c4nc(Nc5ccccc5F)ccc34)cc2)CC1 [Compound 5] was 3.9

----------
- study.system: EGFR (Homo sapiens, UniProt P00533)
- assay.method.text: Inhibition of EGF-induced EGFR (Y1068)-phosphorylation (cell-based assay, U87MG)
- Design: endogenous in cells; host or cells: U87MG
- reported.conditions: EGF 10 ng/ml, Western blot
measurement.kind: IC50 (µM)
Report as a plain number; the unit µM is understood.

The measured IC50 associated with CN1CCC(c2ccc(C(=O)Nc3n[nH]c4nc(Nc5ccccc5F)ccc34)cc2)CC1 reads 3

----------
- study.system: YES kinase (Homo sapiens, UniProt P07947)
- Construct: purchased Thermo Fisher
- Sequence (P07947 whole entry): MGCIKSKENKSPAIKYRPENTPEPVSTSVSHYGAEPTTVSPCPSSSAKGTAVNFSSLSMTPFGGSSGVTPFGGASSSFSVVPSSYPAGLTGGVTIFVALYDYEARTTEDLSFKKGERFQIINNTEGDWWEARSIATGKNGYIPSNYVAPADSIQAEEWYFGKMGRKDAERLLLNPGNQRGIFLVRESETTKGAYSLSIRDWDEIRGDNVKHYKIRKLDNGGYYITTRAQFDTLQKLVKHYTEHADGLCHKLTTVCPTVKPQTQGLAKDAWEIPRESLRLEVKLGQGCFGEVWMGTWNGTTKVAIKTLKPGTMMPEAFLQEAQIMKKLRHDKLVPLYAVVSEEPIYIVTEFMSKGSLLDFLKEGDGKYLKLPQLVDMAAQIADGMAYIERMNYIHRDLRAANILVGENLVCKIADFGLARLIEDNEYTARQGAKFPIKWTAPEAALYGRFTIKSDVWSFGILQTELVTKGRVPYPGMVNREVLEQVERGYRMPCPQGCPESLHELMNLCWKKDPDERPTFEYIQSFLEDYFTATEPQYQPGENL
- assay.method.text: ADP-Glo in vitro kinase assay, YES kinase inhibition
- Format: biochemical
- reported.conditions: ATP 50 μM, 30 minutes at room temperature
- Experimental: The ADP-Glo™ Kinase Assay (Promega), monitoring ADP produced in the kinase reaction, was performed in two steps. In the first one, after the kinase reaction, the ADP-Glo™ Reagent is added to terminate the kinase reaction and deplete the remaining ATP. In the second step, the Kinase Detection Reagent is added to simultaneously convert ADP to ATP (ATPn or newly synthesized ATP) and introduce luciferase and luciferin, allowing the ATPn to be measured (luciferase/luciferin reaction). […]
measurement.kind: IC50 (nM)
Numeric only. Scale: nM

Measured on YES kinase (Homo sapiens, UniProt P07947), CN1CCC(c2ccc(C(=O)Nc3n[nH]c4nc(Nc5ccccc5F)ccc34)cc2)CC1 has a documented IC50 of 3.6

----------
- assay.method.text: Pharmacokinetics in CD1 mice, iv and po
- Format: in vivo
- reported.conditions: mouse, plasma, iv, 3 mg/kg
measurement.kind: AUC(0-t) (ng·h/mL)
Use ng·h/mL as the unit, but write only the number.

[[record]]
molecule = "CN1CCC(c2ccc(C(=O)Nc3n[nH]c4nc(Nc5ccccc5F)ccc34)cc2)CC1 [Compound 5]"
measurement_kind = "AUC(0-t)"
unit_of_measure = "ng·h/mL"
reading = 1620


Attention now shifts to the item below.
AUC(0-t) reading for CN1CCC(c2ccc(C(=O)Nc3n[nH]c4cc(Nc5ccccc5F)ccc34)cc2)CC1 [Compound 17] : 1350

----------
Record: pIC50 reported on FYN (Homo sapiens, UniProt P06241).
Sequence (P06241 whole entry): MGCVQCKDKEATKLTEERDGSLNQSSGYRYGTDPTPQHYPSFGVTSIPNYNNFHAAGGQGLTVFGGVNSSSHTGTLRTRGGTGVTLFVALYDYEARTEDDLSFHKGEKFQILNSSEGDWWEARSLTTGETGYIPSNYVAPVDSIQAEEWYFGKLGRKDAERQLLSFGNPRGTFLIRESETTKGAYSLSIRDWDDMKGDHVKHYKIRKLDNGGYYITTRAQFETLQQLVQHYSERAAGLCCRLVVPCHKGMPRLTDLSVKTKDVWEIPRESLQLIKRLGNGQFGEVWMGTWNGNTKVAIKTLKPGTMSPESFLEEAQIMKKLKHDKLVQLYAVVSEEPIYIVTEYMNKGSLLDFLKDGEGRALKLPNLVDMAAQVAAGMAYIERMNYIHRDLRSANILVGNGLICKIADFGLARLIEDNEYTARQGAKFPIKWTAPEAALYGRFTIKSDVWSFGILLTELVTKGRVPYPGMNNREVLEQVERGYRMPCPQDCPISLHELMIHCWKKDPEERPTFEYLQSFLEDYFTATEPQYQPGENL
pIC50: −log10 of the molar value.
measurement.kind: pIC50

Below: 5 compounds and their reported pIC50.
[[record]]
compound = "CN1CCN(c2ccc(C(=O)Nc3n[nH]c4nc(Nc5ccccc5F)ccc34)cc2)CC1 [Compound 48]"
reading = 6.67

[[record]]
compound = "CN1CCC(c2ccc(C(=O)Nc3n[nH]c4nc(Nc5ccc6c(c5)OCO6)ccc34)cc2)CC1 [Compound 28]"
reading = 7.14

[[record]]
compound = "CN1CCC(c2ccc(C(=O)Nc3n[nH]c4cc(Nc5cccc(F)c5)ccc34)cc2)CC1 [Compound 19]"
reading = 6.59

[[record]]
compound = "CN1CCC(c2ccc(C(=O)Nc3n[nH]c4nc(Nc5ccccc5F)ccc34)cc2)CC1 [Compound 5]"
reading = 7.16

[[record]]
compound = "Cc1ccc(Nc2ccc3c(NC(=O)c4ccc(C5CCN(C)CC5)cc4)n[nH]c3c2)cc1 [Compound 18]"
reading = 6.98


a: Cc1ccc(Nc2ccc3c(NC(=O)c4ccc(C5CCN(C)CC5)cc4)n[nH]c3c2)c(F)c1 [Compound 8]
b: CN1CCC(c2ccc(C(=O)Nc3n[nH]c4nc(Nc5ccc(C#N)cc5)ccc34)cc2)CC1 [Compound 32]
c: CN1CCC(c2ccc(C(=O)Nc3n[nH]c4cc(Nc5ccccc5C(F)(F)F)ccc34)cc2)CC1 [Compound 10]
Write the entries in order, lowest recorded pIC50 first. Form entry: labels listed in requested order.
c, b, a

----------
- assay.method.text: Pharmacokinetics in CD1 mice, iv and po
- Type: in vivo
- reported.conditions: mouse, brain and plasma, 3 mg/kg, calculated on AUC po, read-out: B/P (brain to plasma ratio)
measurement.kind: Kp
Just the number, please, no unit attached.

// CN1CCC(c2ccc(C(=O)Nc3n[nH]c4nc(Nc5ccccc5F)ccc34)cc2)CC1 [Compound 5] : Kp value = 1.4
